- Tested on: 22RV1 cells
- protocol: Inhibition of the proliferation of drug-resistant prostate cancer cell 22RV1 (CCK-8)
- Format: cell-based
- applied_conditions: Homo sapiens; 22RV1 cells (enzalutamide-resistant), same method
pIC50: −log10 of the molar value.
value_type: pIC50

Cc1ccc(-c2c(C)noc2C)cc1N(CC1CN(C2CCN(c3cc4c(cc3F)C(=O)N(C3CCC(=O)NC3=O)C4=O)CC2)C1)c1ccc(C2(C#N)CC2)cc1 (stereo not drawn) [Compound 139] = < 5.70
Cc1ccc(-c2c(C)noc2C)cc1N(CC(C)OC1CCN(c2ccc3c(c2)C(=O)N(C2CCC(=O)NC2=O)C3=O)CC1)c1ccc(C2(C#N)CC2)cc1 (stereo not drawn) [Compound 106] = > 7.00
Cc1ccc(-c2c(C)noc2C)cc1N(C[C@H]1C[C@@H]1CNc1ccc2c(c1)CN(C1CCC(=O)NC1=O)C2=O)c1ccc(C2(C#N)CC2)cc1 (stereo partly drawn) [Compound 187] = 5.70 to 6.30
Cc1ccc(-c2c(C)noc2C)cc1N(CC(C)OC1CN(c2cc3c(cc2F)C(=O)N(C2CCC(=O)NC2=O)C3=O)C1)c1ccc(C2(C#N)CC2)cc1 (stereo not drawn) [Compound 173] = 6.30 to 7.00
Cc1ccc(-c2c(C)noc2C)cc1N(CCCCCCNc1ccc2c(c1)CN(C1CCC(=O)NC1=O)C2=O)c1ccc(C2(C#N)CC2)cc1 (stereo not drawn) [Compound 61] = > 7.00
Cc1ccc(-c2c(C)noc2C)cc1N(CC1CC2(C1)CN(c1cc3c(cc1F)C(=O)N(C1CCC(=O)NC1=O)C3)C2)c1ccc(C2(C#N)CC2)cc1 (stereo not drawn) [Compound 125] = 5.70 to 6.30

----------
- Test system: 22RV1 cells
- protocol: Inhibition of the proliferation of drug-resistant prostate cancer cell 22RV1 (CCK-8)
- Format: cell-based
- applied_conditions: Homo sapiens; 22RV1 cells (enzalutamide-resistant), same method
value_type: IC50

Cc1ccc(-c2c(C)noc2C)cc1N(CC1CC(Nc2cc3c(cc2F)C(=O)N(C2CCC(=O)NC2=O)C3)C1)c1ccc(C2(C#N)CC2)cc1 (stereo not shown) = < 100 nM
Cc1ccc(-c2c(C)noc2C)cc1N(CC(C)OC1CN(c2ccc3c(c2)C(=O)N(C2CCC(=O)NC2=O)C3)C1)c1ccc(C2(C#N)CC2)cc1 (stereo not shown) = > 2000 nM
Cc1ccc(-c2c(C)noc2C)cc1N(C[C@H]1CC[C@H](CNc2cc3c(cc2F)C(=O)N(C2CCC(=O)NC2=O)C3)CC1)c1ccc(C2(C#N)CC2)cc1 (stereo partly shown) = < 100 nM
Cc1ccc(-c2c(C)noc2C)cc1N(C[C@H]1CC[C@H](CNc2cc3c(cc2F)CN(C2CCC(=O)NC2=O)C3=O)CC1)c1ccc(C#N)c(Cl)c1 (stereo partly shown) = 101 to 500 nM
Cc1ccc(-c2c(C)noc2C)cc1N(CCC(C)CCNc1cc2c(cc1F)C(=O)N(C1CCC(=O)NC1=O)C2=O)c1ccc(C2(C#N)CC2)cc1 (stereo not shown) = 501 to 2000 nM
CC(=O)O[C@@H]1C[C@@H](C(=O)N[C@@H](C)c2ccc(-c3scnc3C)cc2)N(C(=O)[C@@H](NC(=O)COCCCCCN(c2ccc(C#N)c(Cl)c2)c2cc(-c3c(C)n[nH]c3C)ccc2C)C(C)(C)C)C1 = > 2000 nM
Cc1ccc(-c2c(C)noc2C)cc1N(C[C@H]1CC[C@H](CNc2ccc3c(c2)C(=O)N(C2CCC(=O)NC2=O)C3=O)CC1)c1ccc(C#N)c(Cl)c1 (stereo partly shown) = 101 to 500 nM
Cc1ccc(-c2c(C)noc2C)cc1N(CC1CCN(C2CCN(c3ccc4c(c3)C(=O)N(C3CCC(=O)NC3=O)C4=O)CC2)CC1)c1ccc(C2(C#N)CC2)cc1 (stereo not shown) = > 2000 nM
Cc1ccc(-c2c(C)noc2C)cc1N(CCCCNc1cc2c(cc1F)C(=O)N(C1CCC(=O)NC1=O)C2)c1ccc(C2(C#N)CC2)cc1 (stereo not shown) = < 100 nM
Cc1ccc(-c2c(C)noc2C)cc1N(CCC(C)CCNc1cc2c(cc1F)CN(C1CCC(=O)NC1=O)C2=O)c1ccc(C2(C#N)CC2)cc1 (stereo not shown) = > 2000 nM
Cc1ccc(-c2c(C)noc2C)cc1N(CCCCNc1ccc2c(c1)CN(C1CCC(=O)NC1=O)C2=O)c1ccc(C2(C#N)CC2)cc1 (stereo not shown) = < 100 nM
Cc1ccc(-c2c(C)noc2C)cc1N(CCCC1CCN(c2ccc3c(c2)C(=O)N(C2CCC(=O)NC2=O)C3)CC1)c1ccc(C2(C#N)CC2)cc1 (stereo not shown) = < 100 nM
Cc1ccc(-c2c(C)noc2C)cc1N(CC1CC(Nc2cc3c(cc2F)C(=O)N(C2CCC(=O)NC2=O)C3=O)C1)c1ccc(C2(C#N)CC2)cc1 (stereo not shown) = 101 to 500 nM
Cc1ccc(-c2c(C)noc2C)cc1N(CC1CC(Nc2cc3c(cc2F)CN(C2CCC(=O)NC2=O)C3=O)C1)c1ccc(C2(C#N)CC2)cc1 (stereo not shown) = 501 to 2000 nM
Cc1ccc(-c2c(C)noc2C)cc1N(CCCOC1CN(c2ccc3c(c2)CN(C2CCC(=O)NC2=O)C3=O)C1)c1ccc(C2(C#N)CC2)cc1 (stereo not shown) = < 100 nM
Cc1ccc(-c2c(C)noc2C)cc1N(CC1(COC2CN(c3cc4c(cc3F)C(=O)N(C3CCC(=O)NC3=O)C4=O)C2)CC1)c1ccc(C2(C#N)CC2)cc1 (stereo not shown) = > 2000 nM
Cc1ccc(-c2c(C)noc2C)cc1N(CCOC1(C)CN(c2cc3c(cc2F)C(=O)N(C2CCC(=O)NC2=O)C3)C1)c1ccc(C2(C#N)CC2)cc1 (stereo not shown) = 501 to 2000 nM
Cc1ccc(-c2c(C)noc2C)cc1N(CC1CCN(CC2CN(c3ccc4c(c3)C(=O)N(C3CCC(=O)NC3=O)C4=O)C2)CC1)c1ccc(C2(C#N)CC2)cc1 (stereo not shown) = > 2000 nM
Cc1ccc(-c2c(C)noc2C)cc1N(CCOC1(C)CN(c2cc3c(cc2F)C(=O)N(C2CCC(=O)NC2=O)C3=O)C1)c1ccc(C2(C#N)CC2)cc1 (stereo not shown) = 101 to 500 nM
Cc1ccc(-c2c(C)noc2C)cc1N(C[C@H]1CC[C@H](CNc2ccc3c(c2)C(=O)N(C2CCC(=O)NC2=O)C3)CC1)c1ccc(C2(C#N)CC2)cc1 (stereo partly shown) = < 100 nM
Cc1ccc(-c2c(C)noc2C)cc1N(CC(C)OC1CN(c2ccc3c(c2)CN(C2CCC(=O)NC2=O)C3=O)C1)c1ccc(C2(C#N)CC2)cc1 (stereo not shown) = < 100 nM
Cc1ccc(-c2c(C)noc2C)cc1N(c1ccc(C2(C#N)CC2)cc1)C1CN(C2CCN(c3ccc4c(c3)C(=O)N(C3CCC(=O)NC3=O)C4=O)CC2)C1 (stereo not shown) = < 100 nM

----------
Entries and their measured IC50 follow.
- System: 22RV1 cells
- protocol: Inhibition of the proliferation of drug-resistant prostate cancer cell 22RV1 (CCK-8)
- Format: cell-based
- applied_conditions: Homo sapiens; 22RV1 cells (enzalutamide-resistant), same method
value_type: IC50

Cc1ccc(-c2c(C)noc2C)cc1N(CCCCNc1ccc2c(c1)C(=O)N(C1CCC(=O)NC1=O)C2=O)c1ccc(C#N)c(Cl)c1 (stereo not drawn) [Compound 165] = > 2000 nM
Cc1ccc(-c2c(C)noc2C)cc1N(C[C@H]1C[C@@H]1CNc1cc2c(cc1F)C(=O)N(C1CCC(=O)NC1=O)C2=O)c1ccc(C2(C#N)CC2)cc1 (stereo partly drawn) [Compound 181] = 101 to 500 nM
Cc1ccc(-c2c(C)noc2C)cc1N(CCCOC1CN(c2cc3c(cc2F)C(=O)N(C2CCC(=O)NC2=O)C3)C1)c1ccc(C2(C#N)CC2)cc1 (stereo not drawn) [Compound 124] = < 100 nM
Cc1ccc(-c2c(C)noc2C)cc1N(CC1CCN(c2cc3c(cc2F)C(=O)N(C2CCC(=O)NC2=O)C3=O)C1)c1ccc(C2(C#N)CC2)cc1 (stereo not drawn) [Compound 107] = > 2000 nM
Cc1ccc(-c2c(C)noc2C)cc1N(CC1CN([C@H]2C[C@@H](Nc3cc4c(cc3F)C(=O)N(C3CCC(=O)NC3=O)C4=O)C2)C1)c1ccc(C2(C#N)CC2)cc1 (stereo partly drawn) [Compound 71] = > 2000 nM
Cc1ccc(-c2c(C)noc2C)cc1N(C[C@H]1CC[C@H](CNc2ccc3c(c2)CN(C2CCC(=O)NC2=O)C3=O)CC1)c1ccc(C2(C#N)CC2)cc1 (stereo partly drawn) [Compound 194] = < 100 nM
Cc1ccc(-c2c(C)noc2C)cc1N(C[C@H]1C[C@@H]1CNc1ccc2c(c1)C(=O)N(C1CCC(=O)NC1=O)C2=O)c1ccc(C2(C#N)CC2)cc1 (stereo partly drawn) [Compound 182] = 101 to 500 nM
Cc1ccc(-c2c(C)noc2C)cc1N(CCCCCNc1ccc2c(c1)CN(C1CCC(=O)NC1=O)C2=O)c1ccc(C#N)c(Cl)c1 (stereo not drawn) [Compound 63] = < 100 nM
Cc1ccc(-c2c(C)noc2C)cc1N(CCCCNc1cc2c(cc1F)CN(C1CCC(=O)NC1=O)C2=O)c1ccc(C#N)c(Cl)c1 (stereo not drawn) [Compound 166] = < 100 nM
Cc1ccc(-c2c(C)noc2C)cc1N(CC1CCN(c2cc3c(cc2F)CN(C2CCC(=O)NC2=O)C3=O)CC1)c1ccc(C2(C#N)CC2)cc1 (stereo not drawn) [Compound 127] = 101 to 500 nM
Cc1ccc(-c2c(C)noc2C)cc1N(CCOC1(C)CN(c2ccc3c(c2)C(=O)N(C2CCC(=O)NC2=O)C3=O)C1)c1ccc(C2(C#N)CC2)cc1 (stereo not drawn) [Compound 110] = > 2000 nM
Cc1ccc(-c2c(C)noc2C)cc1N(CC1(COC2CN(c3ccc4c(c3)C(=O)N(C3CCC(=O)NC3=O)C4=O)C2)CC1)c1ccc(C2(C#N)CC2)cc1 (stereo not drawn) [Compound 137] = > 2000 nM
Cc1ccc(-c2c(C)noc2C)cc1N(CC(C)OC1CCN(c2cc3c(cc2F)C(=O)N(C2CCC(=O)NC2=O)C3=O)CC1)c1ccc(C2(C#N)CC2)cc1 (stereo not drawn) [Compound 188] = 101 to 500 nM
Cc1ccc(-c2c(C)noc2C)cc1N(CC1CCC(CNc2ccc3c(c2)C(=O)N(C2CCC(=O)NC2=O)C3)CC1)c1ccc(C#N)c(Cl)c1 (stereo not drawn) [Compound 134] = < 100 nM
Cc1ccc(-c2c(C)noc2C)cc1N(CC(C)O[C@H]1CCN(c2ccc3c(c2)C(=O)N(C2CCC(=O)NC2=O)C3=O)C1)c1ccc(C2(C#N)CC2)cc1 (stereo partly drawn) [Compound 103] = > 2000 nM
Cc1ccc(-c2c(C)noc2C)cc1N(C[C@H]1C[C@@H]1CNc1cc2c(cc1F)CN(C1CCC(=O)NC1=O)C2=O)c1ccc(C2(C#N)CC2)cc1 (stereo partly drawn) [Compound 184] = > 2000 nM
Cc1ccc(-c2c(C)noc2C)cc1N(CCCCNc1cc2c(cc1F)C(=O)N(C1CCC(=O)NC1=O)C2=O)c1ccc(C2(C#N)CC2)cc1 (stereo not drawn) [Compound 40] = 101 to 500 nM
Cc1ccc(-c2c(C)noc2C)cc1N(c1ccc(C2(C#N)CC2)cc1)C1CN(CC2CCN(c3ccc4c(c3)C(=O)N(C3CCC(=O)NC3=O)C4=O)CC2)C1 (stereo not drawn) [Compound 34] = > 2000 nM
